System: Vero E6 infected with SARS-CoV-2
Assay: inhibition of SARS-CoV-2 cytopathic effect; higher = more antiviral protection, active = above 15
Conditions: 100 nM; 48 h
Measured inhibition of SARS-CoV-2 cytopathic effect values are reported for all entries that follow.
Reply numerically in %, unit not repeated.

CC(O)Cn1cnc2c1c(=O)n(C)c(=O)n2C (stereo not given) :: -0.81

Enquiry: Entry O=C(O)Cc1ccc(OCCNC[C@H](O)c2ccccc2)cc1 needs its inhibition of SARS-CoV-2 cytopathic effect filled in; supply it.
Return: 0.37

Enquiry: Write down inhibition of SARS-CoV-2 cytopathic effect measured for item CC(=C(CCO)SSCC1CCCO1)N(C=O)Cc1cnc(C)nc1N (stereo in doubt)
Return: 2.45

Enquiry: Give the reported value of inhibition of SARS-CoV-2 cytopathic effect for this record: COc1ccc(/C=C/C(=O)O)cc1 [trans-4-methoxycinnamic-acid]
Return: -1.64

Enquiry: Recall and state the measured inhibition of SARS-CoV-2 cytopathic effect for C#CCC(Cc1cnc2nc(N)nc(N)c2n1)c1ccc(C(=O)N[C@@H](CCC(=O)O)C(=O)O)cc1 (stereo not given in full) [pralatrexate] .
Return: -3.9

Enquiry: Entry CN1C(=O)COc2c(C(=O)NC3CN4CCC3CC4)cc(Cl)cc21 (stereo not given) needs its inhibition of SARS-CoV-2 cytopathic effect filled in; supply it.
Return: 0.9
